Target: HLA-A*24:02
Assay: IEDB peptide-MHC binding, purified MHC/competitive/fluorescence; bounds were set here for any values at or beyond the usual limits of such assays
Details: source organism: Vaccinia virus

{"columns": ["Construct sequence", "Test system", "IC50 [µM]"],
 "data": [
  ["SYNDYFNVL", "HLA-A*24:02", 0.0983]
]}

###

Target: HLA-A*31:01
Assay: IEDB peptide-MHC binding, purified MHC/competitive/radioactivity; filed as Kd, often an IC50 or EC50 that approximates it; bounds were set here for any values at or beyond the usual limits of such assays
Conditions: source organism: Dengue virus 1 Nauru/West Pac/1974

{"columns": ["Construct sequence", "Kd"],
 "data": [
  ["STVSQLAKR", "≥ 77.9 µM"]
]}

###

Target: HLA-A*02:06
Assay: IEDB peptide-MHC binding, purified MHC/competitive/radioactivity; filed as Kd, often an IC50 or EC50 that approximates it; bounds were set here for any values at or beyond the usual limits of such assays
Details: source organism: Dengue virus 3 Martinique/1243/1999
pKd: −log10 of the molar value.

{"columns": ["Construct sequence", "pKd"],
 "data": [
  ["YLDVDLHPA", 7.43],
  ["FTILALFLA", 9.13]
]}

###

Biological target: HLA-B*07:02
Test: IEDB peptide-MHC binding, purified MHC/competitive/fluorescence; filed as Kd, often an IC50 or EC50 that approximates it; bounds were set here for any values at or beyond the usual limits of such assays
Settings: source organism: Influenza A virus (A/swine/Italy/1509-6/97(H1N1))
pKd: −log10 of the molar value.

{"columns": ["Construct sequence", "pKd"],
 "data": [
  ["ATYQRTRAL", 6.71]
]}

###

Molecular target: HLA-A*11:01
Assay: IEDB peptide-MHC binding, purified MHC/competitive/radioactivity; filed as Kd, often an IC50 or EC50 that approximates it; bounds were set here for any values at or beyond the usual limits of such assays
Conditions: source organism: Dengue virus 3 Martinique/1243/1999
Quantity name: Kd (nM)

{"columns": ["Construct sequence", "Quantity name", "Measurement"],
 "data": [
  ["ITANPVVTKK", "Kd", 84.6],
  ["ATTVITPMLR", "Kd", 222]
]}

###

Biological target: HLA-A*03:01
Assay: IEDB peptide-MHC binding, purified MHC/direct/fluorescence; filed as Kd, often an IC50 or EC50 that approximates it; bounds were set here for any values at or beyond the usual limits of such assays
Conditions: source organism: Mycobacterium tuberculosis
Quantity name: Kd (nM)

{"columns": ["Construct sequence", "Measurement qualifier", "Measurement"],
 "data": [
  ["GVALRSTYR", "=", 1810],
  ["IQAVFGFSL", "≥", 20000]
]}

###

Target: HLA-A*02:11
Assay: IEDB peptide-MHC binding, purified MHC/competitive/fluorescence; filed as Kd, often an IC50 or EC50 that approximates it; bounds were set here for any values at or beyond the usual limits of such assays
Conditions: source organism: Desulfatibacillum alkenivorans AK-01

{"columns": ["Construct sequence", "Test system", "Kd [nM]"],
 "data": [
  ["KLGKAGYVV", "HLA-A*02:11", 1.3]
]}

###

Biological target: HLA-A*31:01
Assay: IEDB peptide-MHC binding, purified MHC/competitive/radioactivity; filed as Kd, often an IC50 or EC50 that approximates it; bounds were set here for any values at or beyond the usual limits of such assays
Settings: source organism: Mammarenavirus juninense
pKd: −log10 of the molar value.
Quantity name: pKd

{"columns": ["Construct sequence", "Measurement"],
 "data": [
  ["TAVAKCNLNH", "≤ 4.15"]
]}
